The reported measurements were obtained from the supplement of paper PMC6522484.

# Tested on: SW480
# PROCEDURE TEXT: cell viability (CellTiter-Glo) relative to plate median (fraction of plate median); higher = more viable cells
# SETTINGS: 5 µM; treatment time 24 h; reporter: 7TFP
PROPERTY LABEL: cell viability
Respond using a number only.

Solved cases below.
• Oc1c(Cl)cc(Cl)c2cccnc12 = 0.963
• C=CC(C)(O)CCC1C(=C)CC(O)C2C(C)(C)CCCC12C (configuration not stated) = 0.996
• CC(C)(C)NCC(O)c1ccc(O)c(CO)c1 (configuration not stated) = 0.922
• CCC(C)C(NC)C(=O)O (configuration not stated) = 0.946
• CC[N+](C)(C)c1cccc(O)c1 = 0.908
• CC(=O)[C@@]1(O)CC[C@H]2[C@@H]3CCC4=CC(=O)CC[C@]4(C)[C@H]3CC[C@@]21C = 0.922

Query :: Recorded cell viability of O=c1[nH]cnc2c1ncn2[C@@H]1O[C@H](CO)[C@@H](O)[C@H]1O , please.
Result :: 0.971
